- Measurement target: T1, recombinant human Siglec-15 protein (Homo sapiens, UniProt Q6ZMC9)
- T1 construct: purchased Bonopusbio CW70-50 ug
- T1 sequence (Q6ZMC9 20-263 limits assumed): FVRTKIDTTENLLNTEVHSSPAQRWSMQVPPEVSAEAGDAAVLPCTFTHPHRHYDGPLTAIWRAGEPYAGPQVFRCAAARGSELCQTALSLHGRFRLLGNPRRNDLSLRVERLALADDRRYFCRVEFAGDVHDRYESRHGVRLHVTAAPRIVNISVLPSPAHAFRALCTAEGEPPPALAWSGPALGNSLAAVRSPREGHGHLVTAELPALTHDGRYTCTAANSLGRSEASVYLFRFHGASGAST
- Assay: BIACORE surface plasmon resonance binding affinity
- Test context: SPR; antibody as ligand, human Siglec-15 as analyte; 1:1 Langmuir model
Reported property: kd (s⁻¹)
Reply with just the number (in s⁻¹).

Input: Using the record for S15B1-VH4 + VL1: humanized S15B1 antibody, humanized VH4 with humanized VL1 (antibody, V domains shown) VH: QVQLVQSGAEVKKPGASVKVSCKASGYAFSSSWMNWVKQAPGQGLEWIGRIYPGHGETNYNGKFKDRATMTADKSTSTVYMELSSLRSEDTAVYFCARVDNSDPYYFDYWGQGTTVTVSS VL: DIVLTQSPASLAVSPGQRATITCRASKSVSTSGYSYMHWYQQKPGQPPKLLIYLASNLESGVPARFSGSGSGTDFTLTINPVEAEDTANYYCQHGRELPFTFGGGTKLEIK , state its measured kd.
Output: 0.000385
